Where do the numbers come from? From ChEMBL document CHEMBL1681633.

# TARGET_OR_SYSTEM: Signal transducer and activator of transcription 3 (Mus musculus) (UniProt P42227)
# Sequence (P42227 whole entry): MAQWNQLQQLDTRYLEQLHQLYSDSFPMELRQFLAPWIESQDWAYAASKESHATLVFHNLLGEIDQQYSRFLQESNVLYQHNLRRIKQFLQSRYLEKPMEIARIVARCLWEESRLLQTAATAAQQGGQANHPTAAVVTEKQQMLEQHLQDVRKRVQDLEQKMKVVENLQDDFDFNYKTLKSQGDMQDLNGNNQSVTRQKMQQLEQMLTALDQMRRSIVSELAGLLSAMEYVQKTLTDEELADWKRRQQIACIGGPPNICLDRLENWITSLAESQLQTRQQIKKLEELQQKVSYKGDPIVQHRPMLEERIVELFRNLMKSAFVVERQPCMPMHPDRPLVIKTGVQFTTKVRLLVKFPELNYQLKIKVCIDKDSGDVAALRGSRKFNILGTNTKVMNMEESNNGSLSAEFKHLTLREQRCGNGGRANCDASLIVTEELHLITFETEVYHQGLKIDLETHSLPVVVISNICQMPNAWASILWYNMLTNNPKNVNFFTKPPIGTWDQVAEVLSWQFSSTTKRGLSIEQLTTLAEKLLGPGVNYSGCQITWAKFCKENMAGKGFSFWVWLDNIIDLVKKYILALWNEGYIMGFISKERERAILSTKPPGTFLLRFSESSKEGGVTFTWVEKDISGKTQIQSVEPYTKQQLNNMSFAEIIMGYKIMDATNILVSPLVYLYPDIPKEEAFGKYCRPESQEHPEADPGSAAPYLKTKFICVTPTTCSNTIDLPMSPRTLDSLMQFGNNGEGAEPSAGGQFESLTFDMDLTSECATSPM
# ASSAY: Inhibition of STAT3 dimerization in v-Src transformed mouse NIH3T3 cells assessed as suppression of STAT3-DNA binding activity in nucleus at 100 uM after 24 hrs by electrophoretic mobility shift assay
# Format: cell-based
Activity calls are given as the source filed them. No cut-off for these calls is given here.
RECORDED_ENDPOINT: Activity

{"columns": ["SMILES_REPR", "RESULT"],
 "data": [
  ["CC(C)C[C@H](NC(=O)[C@H](Cc1ccc(OP(=O)(O)O)cc1)NC(=O)c1ccc(C#N)cc1)C(=O)Nc1cc(C(=O)NCc2ccccc2)cc(-c2ccc(C(N)=O)cc2)c1", "Active"],
  ["CC(C)C[C@H](NC(=O)[C@H](Cc1ccc(O)cc1)NC(=O)c1ccc(C#N)cc1)C(=O)Nc1ccc(C(=O)NCc2ccccc2)c(-c2ccc(C(N)=O)cc2)c1", "Active"],
  ["CC(C)C[C@H](NC(=O)[C@H](Cc1ccc(OP(=O)(O)O)cc1)NC(=O)c1ccc(C#N)cc1)C(=O)Nc1ccc(C(=O)NCc2ccccc2)c(-c2ccc(C(N)=O)cc2)c1", "Active"]
]}
